Recorded stoichiometry N values for a group of binders are listed next.
EXPERIMENTAL_SYSTEM: proliferating cell nuclear antigen (PCNA) (UniProt P12004 1-261)
Sequence (P12004 whole entry): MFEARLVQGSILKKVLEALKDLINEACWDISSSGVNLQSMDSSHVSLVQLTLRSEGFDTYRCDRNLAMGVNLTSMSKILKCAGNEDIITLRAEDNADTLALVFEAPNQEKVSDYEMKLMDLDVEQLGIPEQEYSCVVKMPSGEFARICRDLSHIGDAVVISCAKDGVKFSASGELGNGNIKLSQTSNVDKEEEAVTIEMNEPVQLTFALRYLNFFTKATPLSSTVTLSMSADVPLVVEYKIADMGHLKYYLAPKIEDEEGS
PROTOCOL: ITC
Respond numerically, and do not add a unit to the figure.

INSERT INTO results (binder, endpoint_result) VALUES
  ('Ac-QTSMTDFYHS-NH2 [p21_(core) peptide (isolated p21 core motif QTSMTDFYHS)]', 0.7),
  ('Ac-KKKKQTSMTDFYHSKKK-NH2 [p21_(All–K) peptide]', 0.92),
  ('Ac-RRRRQTSMTDFYHSRRR-NH2 [p21_(All–R) peptide]', 0.8),
  ('Ac-RKRRQTSMTDFYHSKRR-NH2 [p21_(140–156) peptide (wild-type p21 PIP-degron with flanking regions)]', 0.86);

With those in mind, consider the next binder.
Name the reported stoichiometry N value associated with the binder Ac-KRKKQTSMTDFYHSRKK-NH2 [p21_(SWAP) peptide]
0.95
